The values you see were collected from the supplement of paper PMC10307832.

System: NCI-H1975
Experiment: relative viability (nuclei count vs DMSO), 5 days (fraction); higher = more cells survive
Conditions: first compound 2.53 µM
Listed here: items and their measured relative viability.

Here is how some compounds turned out for relative viability.
O=c1cc(-c2cccc3c2Sc2ccccc2S3)oc(N2CCOCC2)c1 + C[C@@H](Oc1cc(-c2cnn(C3CCNCC3)c2)cnc1N)c1c(Cl)ccc(F)c1Cl [Crizotinib] (partner 1 µM) = 0.837
O=c1cc(-c2cccc3c2Sc2ccccc2S3)oc(N2CCOCC2)c1 + COc1cccc2cc(-c3nc([C@H]4CC[C@H](C(=O)O)CC4)n4ncnc(N)c34)[nH]c12 [OSI-027] (partner 0.5 µM) = 0.587
O=c1cc(-c2cccc3c2Sc2ccccc2S3)oc(N2CCOCC2)c1 + NC(=O)Nc1cc(-c2cccc(F)c2)sc1C(=O)N[C@H]1CCCNC1 [AZD7762] (partner 0.2 µM) = 0.631
COc1nc(C)cnc1NS(=O)(=O)c1cccnc1-c1ccc(-c2nnco2)cc1 [Zibotentan] + CC(C)C[C@H](NC(=O)[C@H](Cc1ccccc1)NC(=O)c1cnccn1)B(O)O [Bortezomib] (partner 0.002 µM) = 0.419

Turning to the following compound.
Ask | Please supply the value of reported relative viability for the item COc1nc(C)cnc1NS(=O)(=O)c1cccnc1-c1ccc(-c2nnco2)cc1 [Zibotentan] + C[C@@H](Oc1cc(-c2cnn(C3CCNCC3)c2)cnc1N)c1c(Cl)ccc(F)c1Cl [Crizotinib] (partner 1 µM)
Reply | 0.967
